# Experiment: Metabolic stability in dog liver microsomes assessed as intrinsic clearance measured per mg protein upto 60 mins by LC/MS-MS analysis
# Format: ADME, Canis lupus familiaris, Microsome
# Assay Conditions: read-out: CLH
Reported Property: microsomal CLint (µL/min/mg)
Unit µL/min/mg implied. Number only.

Need microsomal CLint of `COc1ccccc1S(=O)(=O)Nc1ccc2c3c(cc(-n4cnc(C)c4)nc13)C(=O)N2C` , thanks.
133

---

# Experiment: Metabolic stability in rat assessed as intrinsic hepatic clearance by LC/MS-MS analysis
# Format: ADME
# Assay Conditions: read-out: CLH
Reported Property: CLint scaled (mL/min/kg)
Quick reminder: number only, in mL/min/kg, skip the unit.

Quick one: CLint scaled of `COc1ccccc1S(=O)(=O)Nc1ccc2c3c(cc(-n4cnc(C)c4)nc13)C(=O)N2C` ?
264

Each recorded value in this set is attributed to ChEMBL document CHEMBL4354830.
